- measurementTarget: α-glucosidase
- measurementNotes: Inhibition kinetics assay (Lineweaver–Burk)
- conditionParameters: inhibitory constant on α-glucosidase
- Experimental: The inhibition assay of α-glucosidase was adapted from MORTEZA, with some modification. […] Colorimetry was performed at 405 nm using a spectrophotometer to determine the change in absorbance of the enzymatic reaction system. The reversible inhibitory effect types of sanggenone D and kuwanon G on the enzyme were analyzed by the Lineweaver–Burk equation. The relevant parameters were calculated using Formulas (2)–(4). […]
pKi: −log10 of the molar value.
endpointLabel: pKi

A. CC(C)=CCC12Oc3cc(O)ccc3C1(O)Oc1cc(O)c(C3C=C(C)CC(c4ccc(O)cc4O)C3C(=O)c3ccc(O)cc3O)c(O)c1C2=O (centres unmarked)
B. CC(C)=CCc1c(-c2ccc(O)cc2O)oc2c([C@H]3C=C(C)C[C@@H](c4ccc(O)cc4O)[C@@H]3C(=O)c3ccc(O)cc3O)c(O)cc(O)c2c1=O
Q. // which entry has the larger pKi value, A or B ? Please identify the chosen entry by its label.
A. B

###

- measurementTarget: α-glucosidase
- measurementNotes: α-glucosidase inhibitory activity (p-NPG, absorbance at 405 nm)
- conditionParameters: 1 U/mL α-glucosidase, pH 6.8, 37 °C, p-NPG substrate; read-out: IC50 (semi-inhibitory concentration)
pIC50: −log10 of the molar value.
endpointLabel: pIC50

>>> measurement("CC(C)=CCc1c(-c2ccc(O)cc2O)oc2c([C@H]3C=C(C)C[C@@H](c4ccc(O)cc4O)[C@@H]3C(=O)c3ccc(O)cc3O)c(O)cc(O)c2c1=O")
4.42
>>> measurement("CC(C)=CCC12Oc3cc(O)ccc3C1(O)Oc1cc(O)c(C3C=C(C)CC(c4ccc(O)cc4O)C3C(=O)c3ccc(O)cc3O)c(O)c1C2=O (centres unmarked)")
4.35
